molecular target: human 5-HT1A receptor (Homo sapiens (Human)); assay: Test 2: agonist activity for human 5-HT1A receptor ([35S]GTPγS binding); conditions: [35S]GTPγS binding; concentration at which half the activity of Emax was obtained
Sequence (P08908 whole entry): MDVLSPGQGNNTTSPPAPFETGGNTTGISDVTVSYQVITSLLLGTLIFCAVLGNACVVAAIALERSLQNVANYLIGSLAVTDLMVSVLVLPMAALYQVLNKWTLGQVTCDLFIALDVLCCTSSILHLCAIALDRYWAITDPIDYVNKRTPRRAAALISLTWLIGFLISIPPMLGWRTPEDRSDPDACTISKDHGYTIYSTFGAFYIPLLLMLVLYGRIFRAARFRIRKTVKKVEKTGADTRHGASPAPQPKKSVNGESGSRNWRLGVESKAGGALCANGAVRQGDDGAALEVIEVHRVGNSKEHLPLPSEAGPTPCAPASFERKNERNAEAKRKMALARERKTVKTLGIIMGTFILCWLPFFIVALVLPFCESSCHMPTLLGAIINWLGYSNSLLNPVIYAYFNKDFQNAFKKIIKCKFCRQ
QUANTITY_KIND: EC50 (nM)
Numeric answer only, unit nM assumed.

Name the reported EC50 value associated with the compound O=C1c2cnn(C3CC3)c2CCN1CCN1CCN(c2nsc3ccccc23)CC1 [Example 160]
844

Request: O=C1c2sccc2CCN1CCN1CCC(c2noc3ccccc23)CC1 [Example 126]
67.2

Similarly, Cn1cc2c(n1)C(=O)N(CCN1CCC(c3noc4ccccc34)CC1)CC2 [Example 156] ?
31

Next: CCc1cc2c(cn1)C(=O)N(CCN1CCN(c3nsc4ccccc34)CC1)CC2 [Example 104]
1.99

Likewise for Cc1noc2c1C(=O)N(CCN1CCC(c3noc4ccccc34)CC1)CC2 [Example 33] ?
463

# repeat for O=C1c2ncccc2CCN1CCN1CCN(c2noc3ccc(F)cc23)CC1 [Example 147]
436

How about Cc1nc(C)c2c(n1)CCN(CCN1CCC(c3noc4ccccc34)CC1)C2=O [Example 139] ?
72.7

Repeat for the following compound: O=C1c2occc2CCN1CCN1CCC(c2noc3ccccc23)CC1 [Example 127]
56.9

And Cn1cc2c(n1)CCN(CCN1CCN(c3nsc4ccccc34)CC1)C2=O [Example 36] ?
2.7

Here is the next compound: CC1CN(CCN2CCC(c3noc4ccccc34)CC2)C(=O)c2ncccc21 (stereo not drawn) [Example 15]
7.32

// query: Cc1ccc2c(n1)C(=O)N(CCN1CCN(c3noc4ccccc34)CC1)CC2 [Example 183]
308

Another compound to look at: COc1c2c(nn1C)CCN(CCN1CCN(c3nsc4ccccc34)CC1)C2=O [Example 106]
38.4

# repeat for Cn1ncc2c1C(=O)N(CCN1CCC(c3noc4ccccc34)CC1)CC2 [Example 96]
65.5

Moving on to the next compound: Cc1cc2ccn(CCN3CCN(c4noc5ccccc45)CC3)c(=O)c2cn1 [Example 113]
16

Proceed to COc1ccc2c(C3CCN(CCN4CCc5cccnc5C4=O)CC3)noc2c1 [Example 149]
719

And the next one, [2H]C([2H])([2H])Oc1cc2c(cn1)C(=O)N(CCN1CCN(c3nsc4ccccc34)CC1)CC2([2H])[2H] [Example 107] ?
7.67

Proceed to Cc1nc2c(o1)CCN(CCN1CCC(c3noc4ccccc34)CC1)C2=O [Example 39]
9.06

Same question for O=C1c2ncccc2CCC1CCN1CCC(c2noc3ccccc23)CC1 (stereo not drawn) [Example 24] please.
63.2

Okay, and Cc1nc2c(o1)CCN(CCN1CCN(c3nsc4ccccc34)CC1)C2=O [Example 51] ?
2.08

Ok, now Cc1cc2c(n1C)CCCN(CCN1CCN(c3nsc4ccccc34)CC1)C2=O [Example 167]
0.84

Try the compound Cn1ncc2c1CCC(CCN1CCN(c3nsc4ccccc34)CC1)C2=O (stereo not drawn) [Example 29]
64.5

Item: O=C1c2c(Br)nn(Br)c2CCN1CCN1CCN(c2nsc3ccccc23)CC1 [Example 69]
33.9

Repeat for the following compound: Cc1nc2c(o1)CCCN(CCN1CCC(c3noc4ccccc34)CC1)C2=O [Example 157]
52.7

What about this compound? Cc1nn(C)c2c1C(=O)N(CCN1CCC(c3noc4ccccc34)CC1)CCC2 [Example 91]
8.74

Then what about the compound O=c1c2cccnc2ccn1CCN1CCN(c2nsc3ccccc23)CC1 [Example 10] ?
119

Check Cn1cnc2c1C(=O)N(CCN1CCN(c3nsc4ccccc34)CC1)CCC2 [Example 55] too.
4.3

Now the compound Cc1cccc2c(C3CCN(CCN4CCc5cccnc5C4=O)CC3)noc12 [Example 120]
630

Then this compound: Cc1ncc2c(n1)CCC(CCN1CCC(c3noc4ccccc34)CC1)C2=O (stereo not drawn) [Example 150]
36.9

Another compound to look at: Cn1ncc2c1C(=O)N(CCN1CCC(c3noc4ccccc34)CC1)CCC2 [Example 155]
74.2

Lookup O=C1c2cnccc2CCN1CCN1CCN(c2nsc3ccccc23)CC1 [Example 18]
18

Now this one: O=C1c2cn[nH]c2CCN1CCN1CCN(c2nsc3ccccc23)CC1 [Example 169]
62.9

Next entry: Cc1ncc2c(n1)CCN(CCN1CCC(c3noc4ccccc34)CC1)C2=O [Example 88]
37

CC1CN(CCN2CCN(c3nsc4ccccc34)CC2)C(=O)c2ccn(C)c21 (stereo not drawn) [Example 79] ?
6.21

Try this compound next: O=C1c2ncccc2CCC1CCN1CCN(c2noc3cc(F)ccc23)CC1 (stereo not drawn) [Example 143]
1040

Try this compound too: Cn1ccc2c1CCN(CCN1CCC(c3noc4ccccc34)CC1)C2=O [Example 60]
43

Repeat for the following compound: CC(C)c1nc2c(o1)C(=O)N(CCN1CCC(c3noc4ccccc34)CC1)CC2 [Example 164]
69.5
